target system: HLA-A*02:01
method summary: IEDB peptide-MHC binding, purified MHC/competitive/radioactivity; bounds were set here for any values at or beyond the usual limits of such assays
applied conditions: source organism: Human alphaherpesvirus 1
So I've got a bunch of sequences here, and I need their IC50 values.
One number for each entry, in nM.

The examples below pair each entry with its known result.
[[record]]
sequence_text = "ALHQCFTEL"
endpoint_unit = "nM"
meas_value = 831

[[record]]
sequence_text = "SLLALNEAL"
endpoint_unit = "nM"
meas_value = 54

[[record]]
sequence_text = "FLYLAFVAL"
endpoint_unit = "nM"
meas_value = 1970


Could you tell me IC50 for each of these sequences? They are listed below.
1. ALQTDNYTL
2. YLACLAAVI
3. FADSDGHYV
4. ALPDTVAPV
5. RMWAWIHGL

Solution:
1: 29; 2: 61; 3: 142; 4: 9.1; 5: 61

Could you tell me IC50 for each of these sequences? They are listed below.
1. YLCSLAVVL
2. FMPDFSRVI
3. SLNARGLLV
4. GMLICLTVL
5. FVPYVLALV

Solution:
[17, 101, 145, 548, 0.9]

Could you tell me IC50 for each of these sequences? They are listed below.
1. FLQPTADLL
2. GIAWYVTSI

Solution:
[26, 143]

Could you tell me IC50 for each of these sequences? They are listed below.
1. LLLMGCDIV
2. ALLEACLRV
3. ILFLWSFLV

Solution:
94
6.6
0.36

###

target system: HLA-A*02:01
method summary: IEDB peptide-MHC binding, purified MHC/competitive/radioactivity; bounds were set here for any values at or beyond the usual limits of such assays
applied conditions: source organism: Human alphaherpesvirus 1
So I've got a bunch of sequences here, and I need their IC50 values.
Answers are plain numbers, in nM.

[[record]]
sequence_text = "ILIEGIFFA"
target_system = "HLA-A*02:01"
meas_value = 0.17

[[record]]
sequence_text = "YLLEQLNNL"
target_system = "HLA-A*02:01"
meas_value = 5.7

[[record]]
sequence_text = "FLCAKCLGA"
target_system = "HLA-A*02:01"
meas_value = 137


Could you tell me IC50 for each of these sequences? They are listed below.
1. MLYVIFPGT
2. YTFWRLDLV
3. LLSALGLSV
4. ALLGAWPAV
5. TMLEDHEFV

Solution:
[317, 30, 8.9, 2.5, 118]

Could you tell me IC50 for each of these sequences? They are listed below.
1. TLRGLFFSV
2. VLVVQPAPV
3. FVAPYFESV
4. RLTGYPAGI
5. LLSGLPTYA
6. TLLDQNNAL
7. FLTTPVPSL
8. RLSPFPALV

Solution:
[94, 112, 8.7, 1100, 177, 39, 111, 60]

Could you tell me IC50 for each of these sequences? They are listed below.
1. MLDTWNEDL
2. LLMACAFWC

Solution:
102
974

Could you tell me IC50 for each of these sequences? They are listed below.
1. AVWISLAQV
2. GLLRVGADT
3. VLGCDAALV
4. LLAKMLFYL
5. FVFVILARL
6. RVYNIIQLV
7. ALMGAVTSL

Solution:
[259, 23900, 521, 5.6, 720, 19700, 4.2]
